# tgt: T1, IL-36R naturally expressed on OVCAR8 cells and on normal human epidermal keratinocytes (NHK cells) (human, UniProt Q9HB29 20-575)
# T1 sequence (looked up): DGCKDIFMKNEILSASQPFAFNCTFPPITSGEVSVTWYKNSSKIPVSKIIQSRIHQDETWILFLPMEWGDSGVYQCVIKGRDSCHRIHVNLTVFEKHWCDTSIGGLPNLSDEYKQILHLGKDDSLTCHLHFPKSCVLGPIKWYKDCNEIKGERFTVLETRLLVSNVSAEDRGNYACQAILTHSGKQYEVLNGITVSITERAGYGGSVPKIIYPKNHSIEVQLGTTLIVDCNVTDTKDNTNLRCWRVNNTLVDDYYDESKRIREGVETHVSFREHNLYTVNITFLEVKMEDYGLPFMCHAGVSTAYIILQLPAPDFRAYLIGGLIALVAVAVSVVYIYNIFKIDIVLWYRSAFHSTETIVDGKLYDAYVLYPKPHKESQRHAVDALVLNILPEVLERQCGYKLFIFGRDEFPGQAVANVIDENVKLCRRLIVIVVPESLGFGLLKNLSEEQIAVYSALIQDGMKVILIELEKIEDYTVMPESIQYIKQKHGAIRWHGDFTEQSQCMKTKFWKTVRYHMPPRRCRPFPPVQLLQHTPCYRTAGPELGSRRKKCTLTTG
# measurementNotes: cell-based or functional assay
attributeMeasured: Maximum inhibition rate %; hIL36β; IL-8 production (%)
Note: unit % is implicit; provide only the numeric part.

Provide measured Maximum inhibition rate %; hIL36β; IL-8 production value, entry: hz84C4-2.1 (antibody, human IgG4 S228P, kappa, V domains shown, Humanized, human IgG4 / kappa) VH: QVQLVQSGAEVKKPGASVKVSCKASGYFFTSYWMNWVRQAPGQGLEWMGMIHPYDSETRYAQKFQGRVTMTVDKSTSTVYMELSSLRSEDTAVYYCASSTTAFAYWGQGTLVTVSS VL: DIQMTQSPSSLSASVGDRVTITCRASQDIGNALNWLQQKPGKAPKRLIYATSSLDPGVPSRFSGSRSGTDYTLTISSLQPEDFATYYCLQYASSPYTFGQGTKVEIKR
99.3

Identify the reported Maximum inhibition rate %; hIL36β; IL-8 production for the following entry. hz84C4-2.5 (antibody, human IgG4 S228P, kappa, V domains shown, Humanized, human IgG4 / kappa) VH: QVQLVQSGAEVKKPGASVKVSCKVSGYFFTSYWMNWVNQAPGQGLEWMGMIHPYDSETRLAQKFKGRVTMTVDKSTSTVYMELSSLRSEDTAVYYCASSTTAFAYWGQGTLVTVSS VL: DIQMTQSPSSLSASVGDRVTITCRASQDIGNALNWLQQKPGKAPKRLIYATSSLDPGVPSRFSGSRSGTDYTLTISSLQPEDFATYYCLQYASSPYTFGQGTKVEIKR
99.4
